# Tested on: COLO 205 colon
# assay.name: NCI-60 one-dose screen, 48 h
# study.conditions: 10 µM unless noted
The panel holds about 83,000 compounds, 20% with a hit somewhere; the sample as a whole holds those more often. Activity calls are given as the source filed them. How the source made its calls: active means growth percent below 10; inactive means the rest.
Just give me one of these, please: 1 (active), 0 (inactive)

Q: I'd appreciate the recorded outcome for `N#C[Se]CCN1C(=O)c2ccccc2C1=O` from this test.
Ans: 0

Q: I'd appreciate the recorded outcome for `CS(=O)(=O)CCN1CC2CCCC(C2)C1` from this test.
Ans: 0

Q: I'd appreciate the recorded outcome for `Clc1ccc(N2COOC3(OOC2)C2CC4CC(C2)CC3C4)cc1` from this test.
Ans: 0

Q: I'd appreciate the recorded outcome for `O[C@H](CN1CC1)[C@@H](O)CN1CC1` from this test.
Ans: 0

Q: I'd appreciate the recorded outcome for `COc1cc(/C=C\c2cc(OC)c(OC)c(OC)c2)cc(NS(=O)(=O)c2cccc(Cl)c2)c1OC` from this test.
Ans: 1

Q: I'd appreciate the recorded outcome for `CC(=O)OCc1cc[c]([Hg][Cl])o1` from this test.
Ans: 1

Q: I'd appreciate the recorded outcome for `COC(=O)[C@@H](C)C[C@H](Cc1ccccc1)NC(=O)c1csc([C@@H](C[C@H](C(C)C)N(C)C(=O)C2(NC(=O)[C@H]3CCCCN3C)CCC2)OC(C)=O)n1` from this test.
Ans: 1

Q: I'd appreciate the recorded outcome for `CC(=O)O[C@H](C[C@H](C(C)C)N(C)C(=O)[C@@H](NC(=O)[C@H]1CCCCN1C)C(C)(C)C)c1nc(C(=O)N[C@@H](Cc2ccccc2)C[C@H](C)C(=O)O)cs1` from this test.
Ans: 1

Q: I'd appreciate the recorded outcome for `CNC(=O)Oc1ccc2c(c1)OCO2` from this test.
Ans: 0

Q: I'd appreciate the recorded outcome for `Nc1ccc2c(c1)Cc1cc(Br)ccc1-2` from this test.
Ans: 0

Q: I'd appreciate the recorded outcome for C[C@]12CC[C@H]3[C@@H](C[C@@H]4SC(Nc5ccccc5)=N[C@@]45CC(O)CC[C@]35C)[C@@H]1CCC2O (some centres undefined) from this test.
Ans: 0

Q: I'd appreciate the recorded outcome for CC1=C2[C@@H](CC1)[C@]1(C)O[C@@](C(C)C)(C[C@H]1O)[C@H]2OC(=O)C1CC1c1ccccc1 (some centres undefined) from this test.
Ans: 0

Q: I'd appreciate the recorded outcome for `CC1(C)N=C(N)N=C(N)N1c1cccc(CCCCc2ccc(Cl)c(S(=O)(=O)F)c2)c1` from this test.
Ans: 0

Q: I'd appreciate the recorded outcome for O=C1C=C(N2C3C4CCC(C4)C32)C(=O)C=C1c1ccccc1 (centres undefined) from this test.
Ans: 0

Q: I'd appreciate the recorded outcome for `C=CC[Se]C(=O)c1ccccc1OC(C)=O` from this test.
Ans: 0

Q: I'd appreciate the recorded outcome for `COC(=O)[C@@H](C)C[C@H](Cc1ccccc1)NC(=O)c1csc([C@@H](C[C@H](C(C)C)N(C)C(=O)[C@@H](NC(=O)[C@H]2CCCCN2C)c2ccc(F)cc2)OC(C)=O)n1` from this test.
Ans: 1

Q: I'd appreciate the recorded outcome for `O=C(O)c1ccc([S-])cc1.[Au+].c1ccc(CN2[CH-]N(Cc3ccccc3)C(c3ccccc3)=C2c2ccccc2)cc1` from this test.
Ans: 1

Q: I'd appreciate the recorded outcome for `CCCCCCC(=O)NC1=C(N2CC2)C(=O)C(NC(=O)CCCCCC)=C(N2CC2)C1=O` from this test.
Ans: 1

Q: I'd appreciate the recorded outcome for CCN(CC)c1ccc2c(c1)OC(N)=C(C#N)C2c1cc(OC)c2c(c1)OCO2 (centres undefined) from this test.
Ans: 1
